Test system: Calu-3
Assay: drug sensitivity score (DSS) for viability; higher = more toxic; extreme values may be limits of the assay
Condition Notes: 72 h
Reported drug sensitivity score values follow for various compounds
Lab note: jot the number down without any unit.

CC1(C)CC(Oc2ccc(-c3ccc(-c4cn[nH]c4)cc3O)nn2)CC(C)(C)N1 = 2.9
NS(=O)(=O)c1ccc(NC(=O)Nc2ccc(F)cc2)cc1 = 0
COc1cc2nc(N3CCN(C(=O)C4CCCO4)CC3)nc(N)c2cc1OC (stereo unspecified) = 0
C[C@]12N[C@H](Cc3ccccc31)c1ccccc12 [dizocilpine-(-)] = 0
O=c1ccc2ccccc2o1 = 0

Note down drug sensitivity score recorded for CC(=O)S[C@@H]1CC2=CC(=O)CC[C@]2(C)[C@H]2CC[C@@]3(C)[C@@H](CC[C@@]34CCC(=O)O4)[C@H]12
0

Respond only with drug sensitivity score recorded for CC=C1C(=O)C[C@H]2[C@@H]3CCC4=CC(=O)CC[C@]4(C)[C@H]3CC[C@]12C
0

Give the reported value of drug sensitivity score for this record: OCc1ccccc1O[C@@H]1O[C@H](CO)[C@@H](O)[C@H](O)[C@H]1O
0

Write down drug sensitivity score measured for item O=c1cc[nH]c(=S)[nH]1
0

Specify drug sensitivity score for CON(C)C(=O)N1N=C(c2cc(F)ccc2F)S[C@@]1(CCCN)c1ccccc1 and stop.
2

Give drug sensitivity score for the following compound: CCC(=O)O[C@H]1[C@H](O[C@@H]2[C@@H](C)[C@H](O[C@H]3C[C@@](C)(OC)[C@@H](O)[C@H](C)O3)[C@@H](C)C(=O)O[C@H](CC)[C@@](C)(O)[C@H](O)[C@@H](C)C(=O)[C@H](C)C[C@@]2(C)O)O[C@H](C)C[C@@H]1N(C)C [erythromycin-estolate]
0

Provide measured drug sensitivity score value, entry: CCS(=O)(=O)Nc1ccc2c(c1)/C(=C(/Nc1ccc(CN3CCCCC3)cc1)c1ccccc1)C(=O)N2
6.8

Note down drug sensitivity score recorded for COCCN(C(=O)c1cc(OC)c(OC)c(OC)c1)c1nc(-c2ccccc2)cs1
0.4

Fill in drug sensitivity score for record C[N+]1(C)[C@@H]2C[C@@H](OC(=O)[C@H](CO)c3ccccc3)C[C@H]1[C@@H]1O[C@@H]12
0

Name the recorded drug sensitivity score of the item Cc1ccc(=O)n(-c2ccc(O)cc2)c1 in your answer.
0

Give recorded drug sensitivity score. Cc1nc(NC(=O)N2CCC[C@H]2C(N)=O)sc1-c1ccnc(C(C)(C)C(F)(F)F)c1
9.2
